I'd be grateful if you could share measured MIC80 for these entries.
test system: Candida albicans; assay: Antifungal activity against Candida albicans ATCC 76615 after 24 hrs by micro-broth dilution method; assay type: functional; conditions: ATCC 76615, 24 h
Express it in µg/mL; write the number only.

IN: Using the record for C=CCN(Cc1ccc(C(=O)OCCCCC)cc1)CC(O)(Cn1cncn1)c1ccc(F)cc1F (stereo not drawn) , report its MIC80.
OUT: 1

IN: Lookup OC(Cn1cncn1)(Cn1cncn1)c1ccc(F)cc1F [FLUCONAZOLE]
OUT: 0.5

IN: Lookup C=CCN(Cc1ccccc1F)CC(O)(Cn1cncn1)c1ccc(F)cc1F (stereo not drawn)
OUT: 0.0039

IN: Lookup C=CCN(Cc1ccc(C(=O)OC(C)C)cc1)CC(O)(Cn1cncn1)c1ccc(F)cc1F (stereo not drawn)
OUT: 0.25

IN: Lookup C[C@@H]1[C@H](O)[C@@H](C)/C=C/C=C/C=C/C=C/C=C/C=C/C=C/[C@H](O[C@@H]2O[C@H](C)[C@@H](O)[C@H](N)[C@@H]2O)C[C@@H]2O[C@](O)(C[C@@H](O)C[C@@H](O)[C@H](O)CC[C@@H](O)C[C@@H](O)CC(=O)O[C@H]1C)C[C@H](O)[C@H]2C(=O)O [AMPHOTERICIN B]
OUT: 2

IN: Lookup C=CCN(Cc1ccc(C(=O)OC)cc1)CC(O)(Cn1cncn1)c1ccc(F)cc1F (stereo not drawn)
OUT: 0.0625

IN: Lookup C=CCN(Cc1ccc(C)cc1)CC(O)(Cn1cncn1)c1ccc(F)cc1F (stereo not drawn)
OUT: 0.0156

IN: Lookup C=CCN(Cc1ccc(C(=O)OCCCC)cc1)CC(O)(Cn1cncn1)c1ccc(F)cc1F (stereo not drawn)
OUT: 0.25

IN: Lookup C=CCN(Cc1ccc(C(=O)Oc2cccc([N+](=O)[O-])c2)cc1)CC(O)(Cn1cncn1)c1ccc(F)cc1F (stereo not drawn)
OUT: 0.25

IN: Lookup C=CCN(Cc1ccc(Cl)cc1Cl)CC(O)(Cn1cncn1)c1ccc(F)cc1F (stereo not drawn)
OUT: 1

IN: Lookup C=CCN(Cc1ccccc1C)CC(O)(Cn1cncn1)c1ccc(F)cc1F (stereo not drawn)
OUT: 0.0156

IN: Lookup C=CCN(Cc1ccc(C(=O)Oc2ccc(C(=O)OCCC)cc2)cc1)CC(O)(Cn1cncn1)c1ccc(F)cc1F (stereo not drawn)
OUT: 1

IN: Lookup C=CCN(Cc1ccc(C(=O)Oc2ccc(Cl)cc2)cc1)CC(O)(Cn1cncn1)c1ccc(F)cc1F (stereo not drawn)
OUT: 1

IN: Lookup CCC(C)n1ncn(-c2ccc(N3CCN(c4ccc(OCC5COC(Cn6cncn6)(c6ccc(Cl)cc6Cl)O5)cc4)CC3)cc2)c1=O (stereo not drawn) [ITRACONAZOLE]
OUT: 0.0625

IN: Lookup C=CCN(Cc1ccc(C(=O)Oc2ccccc2C(=O)OC)cc1)CC(O)(Cn1cncn1)c1ccc(F)cc1F (stereo not drawn)
OUT: 0.0625

IN: Lookup C=CCN(Cc1ccc(C(=O)OCC)cc1)CC(O)(Cn1cncn1)c1ccc(F)cc1F (stereo not drawn)
OUT: 0.0039

IN: Lookup C=CCN(Cc1ccccc1)CC(O)(Cn1cncn1)c1ccc(F)cc1F (stereo not drawn)
OUT: 0.0039

IN: Lookup C=CCN(Cc1cccc(F)c1)CC(O)(Cn1cncn1)c1ccc(F)cc1F (stereo not drawn)
OUT: 0.0156

IN: Lookup C=CCN(Cc1ccc([N+](=O)[O-])cc1)CC(O)(Cn1cncn1)c1ccc(F)cc1F (stereo not drawn)
OUT: 0.0156

IN: Lookup C=CCN(Cc1ccc(F)cc1)CC(O)(Cn1cncn1)c1ccc(F)cc1F (stereo not drawn)
OUT: 0.0156

IN: Lookup C=CCN(Cc1ccc(C(=O)OCC(C)C)cc1)CC(O)(Cn1cncn1)c1ccc(F)cc1F (stereo not drawn)
OUT: 1

IN: Lookup C=CCN(Cc1ccc(Cl)cc1)CC(O)(Cn1cncn1)c1ccc(F)cc1F (stereo not drawn)
OUT: 0.25

IN: Lookup C=CCN(Cc1ccc(C(=O)Oc2ccccc2)cc1)CC(O)(Cn1cncn1)c1ccc(F)cc1F (stereo not drawn)
OUT: 1
